Here, each record is paired with measured % Hydrolyzed after 12 hr, Avg data.
assay: Bovine cornea hydrolysis assay; assay type: in vitro ADME; conditions: average of cornea samples 1-3
REPORTED ENDPOINT: % Hydrolyzed after 12 hr, Avg (%)

compound="O=C(CCC/C=C\\C[C@@H]1[C@@H](/C=C/[C@@H](O)CCc2ccccc2)[C@H](O)C[C@@H]1O)NC1CC1 [17-phenyl trinor PGF2α cyclopropyl amide, 17 phenyl trinor PGF2α cyclopropylamide]" measurement_unit=% value_observed=1.82
compound=O=C(CCC/C=C\C[C@@H]1[C@@H](/C=C/[C@@H](O)COc2ccccc2)[C@H](O)C[C@@H]1O)NCC1CC1 measurement_unit=% value_observed=1.22
compound="O=C(CCC/C=C\\C[C@@H]1[C@@H](/C=C/[C@@H](O)COc2ccccc2)[C@H](O)C[C@@H]1O)NC1CC1 [16-phenoxy PGF2α cyclopropyl amide]" measurement_unit=% value_observed=1.78
compound=O=C(CCC/C=C\C[C@@H]1[C@@H](/C=C/[C@@H](O)CCc2ccccc2)[C@H](O)C[C@@H]1O)NCC1CC1 measurement_unit=% value_observed=0.91
